# System: Aspergillus fumigatus
# RUN DESCRIPTION: Antifungal activity against Aspergillus fumigatus after 7 days by serial dilution method
# Assay type: functional
# MEASUREMENT PARAMETERS: 168 h
I'd appreciate it if you could supply MIC80 values for the items below.

Entry "Cc1ccc2c(c1)c1c(n2CCCNC2CCCCC2)CCCC1" ; MIC80 = > 64 µg/mL

Entry "Cc1ccc2c(c1)c1c(n2CCCNCc2cccnc2)CCCC1" ; MIC80 = 64 µg/mL

Entry "Cc1ccc2c(c1)c1c(n2CCCNCc2ccccc2)CCCC1" ; MIC80 = 32 µg/mL

Entry "Cc1ccc2c(c1)c1c(n2C[C@@H](O)CNC2CCCCC2)CCCC1" ; MIC80 = 64 µg/mL

Entry Cc1ccc2c(c1)c1c(n2CC(O)CNCc2cccnc2)CCCC1 (stereo unspecified) ; MIC80 = 64 µg/mL

Entry "Cc1ccc(CNCCCn2c3c(c4cc(C)ccc42)CCCC3)cc1" ; MIC80 = 32 µg/mL

Entry "Cc1ccc2c(c1)c1c(n2CCCNCc2ccccc2F)CCCC1" ; MIC80 = 16 µg/mL

Entry "O=C(c1ccc2c(c1)c1c(n2CCCNCc2ccccc2)CCCC1)c1ccccn1" ; MIC80 = > 64 µg/mL

Entry "Cc1ccc2c(c1)c1c(n2CCCNCc2cccc(Cl)c2)CCCC1" ; MIC80 = > 64 µg/mL

Entry "c1ccc(CNCCCn2c3c(c4cc(CNc5ccccc5)ccc42)CCCC3)cc1" ; MIC80 = > 64 µg/mL

Entry "O=C(NCc1ccccc1)c1ccc2c(c1)c1c(n2CCCNCc2ccccc2)CCCC1" ; MIC80 = > 64 µg/mL

---

# Test system: Candida parapsilosis
# RUN DESCRIPTION: Antifungal activity against Candida parapsilosis after 24 hrs by serial dilution method
# Type: functional
# MEASUREMENT PARAMETERS: Lodderomyces parapsilosis
OBSERVATION TYPE: MIC80 (µg/mL)
Numbers only here, please. The scale is µg/mL.

Measured MIC80 (Candida parapsilosis), entry "COc1ccc(CNCCCn2c3c(c4cc(C)ccc42)CCCC3)cc1" : 16

Measured MIC80 (Candida parapsilosis), entry "Cc1c(C(=O)c2ccccn2)oc2cccc(OCCCNCc3cccnc3)c12" : 4

Measured MIC80 (Candida parapsilosis), entry "Cc1ccc2c(c1)c1c(n2CCCNCc2ccccc2)CCCC1" : 16

Measured MIC80 (Candida parapsilosis), entry "Cc1ccc(CNCCCn2c3c(c4cc(C)ccc42)CCCC3)cc1" : 32

Measured MIC80 (Candida parapsilosis), entry Cc1ccc2c(c1)c1c(n2CC(O)CNCc2ccccc2)CCCC1 (stereo unspecified) : 64

---

# Test system: Candida albicans
# RUN DESCRIPTION: Antifungal activity against Candida albicans after 24 hrs by serial dilution method
# Type: functional
OBSERVATION TYPE: MIC80

Measured MIC80 (Candida albicans), entry "O=C(OC1CCCCC1)c1ccc2c(c1)c1c(n2CCCNCc2ccccc2)CCCC1" : 64 µg/mL

Measured MIC80 (Candida albicans), entry Cc1ccc2c(c1)c1c(n2CC(O)CNCc2cccnc2)CCCC1 (stereo not given) : > 64 µg/mL

Measured MIC80 (Candida albicans), entry "O=C(OCc1ccc2c(c1)c1c(n2CCCNCc2ccccc2)CCCC1)c1ccccc1" : > 64 µg/mL

Measured MIC80 (Candida albicans), entry "O=C(Nc1ccccc1)c1ccc2c(c1)c1c(n2CCCNCc2ccccc2)CCCC1" : 32 µg/mL

Measured MIC80 (Candida albicans), entry "O=C(Oc1ccccc1)c1ccc2c(c1)c1c(n2CCCNCc2ccccc2)CCCC1" : 64 µg/mL

Measured MIC80 (Candida albicans), entry Cc1ccc2c(c1)c1c(n2CC(O)CNCc2ccccc2)CCCC1 (stereo not given) : 16 µg/mL

Measured MIC80 (Candida albicans), entry "CCOC(=O)c1ccc2c(c1)c1c(n2CCCNCc2ccccc2)CCCC1" : > 64 µg/mL

Measured MIC80 (Candida albicans), entry "Cc1ccc2c(c1)c1c(n2CCCNCc2ccccc2F)CCCC1" : > 64 µg/mL

Measured MIC80 (Candida albicans), entry "O=C(c1ccc2c(c1)c1c(n2CCCNCc2ccccc2)CCCC1)c1ccccn1" : 64 µg/mL

Measured MIC80 (Candida albicans), entry "Cc1ccc2c(c1)c1c(n2CCCNCc2ccc(F)cc2)CCCC1" : 64 µg/mL
